Tested on: NCI-H1993
Assay: relative viability (nuclei count vs DMSO), 5 days (fraction); higher = more cells survive
Conditions: first compound 5 µM
Measured attribute: relative viability
Hey, just send me the number, nothing else.

Some solved cases for reference:
O=C(O)CCCCC(CCSCc1ccccc1)SCc1ccccc1 (centres undefined) [CPI-613] + Nc1nc2[nH]cc(CCc3ccc(C(=O)N[C@@H](CCC(=O)O)C(=O)O)cc3)c2c(=O)[nH]1 [Pemetrexed] (partner 0.2 µM) ... 0.601
O=C(O)CCCCC(CCSCc1ccccc1)SCc1ccccc1 (centres undefined) [CPI-613] + CS(=O)(=O)N1CCN(Cc2cc3nc(-c4cccc5[nH]ncc45)nc(N4CCOCC4)c3s2)CC1 [Pictilisib] (partner 1 µM) ... 0.762
O=C(O)CCCCC(CCSCc1ccccc1)SCc1ccccc1 (centres undefined) [CPI-613] + Cc1cc(Nc2cc(N3CCN(C)CC3)nc(Sc3ccc(NC(=O)C4CC4)cc3)n2)n[nH]1 [Tozasertib] (partner 0.1 µM) ... 0.631

// next entry
Q: Suppose we examine the molecule O=C(O)CCCCC(CCSCc1ccccc1)SCc1ccccc1 (centres undefined) [CPI-613] + Cc1nc(Nc2ncc(C(=O)Nc3c(C)cccc3Cl)s2)cc(N2CCN(CCO)CC2)n1 [Dasatinib] (partner 0.075 µM) ; what relative viability value has been reported?
A: 0.495

====

Test system: SW 1573
Assay: relative viability (nuclei count vs DMSO), 5 days (fraction); higher = more cells survive
Conditions: first compound 0.005 µM
Recorded relative viability, one value per entry.
Hey, just send me the number, nothing else.

Some solved cases for reference:
COc1cc2nccc(Oc3ccc(NC(=O)Nc4cc(C)on4)c(Cl)c3)c2cc1OC [Tivozanib] + Nc1ncn([C@H]2C[C@H](O)[C@@H](CO)O2)c(=O)n1 [Decitabine] (partner 2 µM) ... 0.461
COc1cc2nccc(Oc3ccc(NC(=O)Nc4cc(C)on4)c(Cl)c3)c2cc1OC [Tivozanib] + C[C@]1(O)C[C@@H](c2nc(-c3ccc4ccc(-c5ccccc5)nc4c3)c3c(N)nccn32)C1 [Linsitinib] (partner 1 µM) ... 0.896
COc1cc2nccc(Oc3ccc(NC(=O)Nc4cc(C)on4)c(Cl)c3)c2cc1OC [Tivozanib] + CS(=O)(=O)CCNCc1ccc(-c2ccc3ncnc(Nc4ccc(OCc5cccc(F)c5)c(Cl)c4)c3c2)o1 [Lapatinib] (partner 2 µM) ... 0.909

// next entry
Q: Suppose we examine the compound COc1cc2nccc(Oc3ccc(NC(=O)Nc4cc(C)on4)c(Cl)c3)c2cc1OC [Tivozanib] + Cc1nc(Nc2ncc(C(=O)Nc3c(C)cccc3Cl)s2)cc(N2CCN(CCO)CC2)n1 [Dasatinib] (partner 0.075 µM) ; what relative viability value has been reported?
A: 0.534

====

Recorded relative viability, one value per entry.
Tested on: PC-14
Test: relative viability (nuclei count vs DMSO), 5 days (fraction); higher = more cells survive
Details: first compound 5 µM

Q: Suppose we examine the molecule O=C(O)CCCCC(CCSCc1ccccc1)SCc1ccccc1 (stereo not drawn) [CPI-613] + O=C(CCCCCCC(=O)Nc1ccccc1)NO [Vorinostat] (partner 1 µM) ; what relative viability value has been reported?
A: 0.732

Q: Suppose we examine the molecule O=C(O)CCCCC(CCSCc1ccccc1)SCc1ccccc1 (stereo not drawn) [CPI-613] + Nc1nc2[nH]cc(CCc3ccc(C(=O)N[C@@H](CCC(=O)O)C(=O)O)cc3)c2c(=O)[nH]1 [Pemetrexed] (partner 0.2 µM) ; what relative viability value has been reported?
A: 0.133

Q: Suppose we examine the molecule O=C(O)CCCCC(CCSCc1ccccc1)SCc1ccccc1 (stereo not drawn) [CPI-613] + Nc1ncn([C@H]2C[C@H](O)[C@@H](CO)O2)c(=O)n1 [Decitabine] (partner 2 µM) ; what relative viability value has been reported?
A: 0.266

Q: Suppose we examine the molecule O=C(O)CCCCC(CCSCc1ccccc1)SCc1ccccc1 (stereo not drawn) [CPI-613] + N=C(N)NC(=N)NCCc1ccccc1 [Phenformin] (partner 250 µM) ; what relative viability value has been reported?
A: 0.463

Q: Suppose we examine the molecule O=C(O)CCCCC(CCSCc1ccccc1)SCc1ccccc1 (stereo not drawn) [CPI-613] + CC1(C)CCC(c2ccc(Cl)cc2)=C(CN2CCN(c3ccc(C(=O)NS(=O)(=O)c4ccc(N[C@H](CCN5CCOCC5)CSc5ccccc5)c(S(=O)(=O)C(F)(F)F)c4)cc3)CC2)C1 [Navitoclax] (partner 0.5 µM) ; what relative viability value has been reported?
A: 1

Q: Suppose we examine the molecule O=C(O)CCCCC(CCSCc1ccccc1)SCc1ccccc1 (stereo not drawn) [CPI-613] + NC(=O)Nc1cc(-c2cccc(F)c2)sc1C(=O)N[C@H]1CCCNC1 [AZD7762] (partner 0.2 µM) ; what relative viability value has been reported?
A: 0.349

Q: Suppose we examine the molecule O=C(O)CCCCC(CCSCc1ccccc1)SCc1ccccc1 (stereo not drawn) [CPI-613] + Cc1nc(Nc2ncc(C(=O)Nc3c(C)cccc3Cl)s2)cc(N2CCN(CCO)CC2)n1 [Dasatinib] (partner 0.075 µM) ; what relative viability value has been reported?
A: 0.237

Q: Suppose we examine the molecule O=C(O)CCCCC(CCSCc1ccccc1)SCc1ccccc1 (stereo not drawn) [CPI-613] + CCNC(=O)c1noc(-c2cc(C(C)C)c(O)cc2O)c1-c1ccc(CN2CCOCC2)cc1 [Luminespib] (partner 0.01 µM) ; what relative viability value has been reported?
A: 0.158

====

Recorded relative viability, one value per entry.
Test system: SW 1573
Assay: relative viability (nuclei count vs DMSO), 5 days (fraction); higher = more cells survive
Conditions: first compound 0.002 µM
Hey, just send me the number, nothing else.

Q: Record lookup: for SW 1573, what relative viability belongs to CC(=O)O[C@@]12CO[C@@H]1C[C@H](O)[C@@]1(C)C(=O)[C@H](O)C3=C(C)[C@@H](OC(=O)[C@H](O)[C@@H](NC(=O)OC(C)(C)C)c4ccccc4)C[C@@](O)([C@@H](OC(=O)c4ccccc4)[C@H]21)C3(C)C [Docetaxel] + O=C(CCCCCCC(=O)Nc1ccccc1)NO [Vorinostat] (partner 1 µM) ?
A: 0.228

Q: Record lookup: for SW 1573, what relative viability belongs to CC(=O)O[C@@]12CO[C@@H]1C[C@H](O)[C@@]1(C)C(=O)[C@H](O)C3=C(C)[C@@H](OC(=O)[C@H](O)[C@@H](NC(=O)OC(C)(C)C)c4ccccc4)C[C@@](O)([C@@H](OC(=O)c4ccccc4)[C@H]21)C3(C)C [Docetaxel] + Cc1nc(Nc2ncc(C(=O)Nc3c(C)cccc3Cl)s2)cc(N2CCN(CCO)CC2)n1 [Dasatinib] (partner 0.075 µM) ?
A: 0.122

Q: Record lookup: for SW 1573, what relative viability belongs to CC(=O)O[C@@]12CO[C@@H]1C[C@H](O)[C@@]1(C)C(=O)[C@H](O)C3=C(C)[C@@H](OC(=O)[C@H](O)[C@@H](NC(=O)OC(C)(C)C)c4ccccc4)C[C@@](O)([C@@H](OC(=O)c4ccccc4)[C@H]21)C3(C)C [Docetaxel] + Nc1ncn([C@H]2C[C@H](O)[C@@H](CO)O2)c(=O)n1 [Decitabine] (partner 2 µM) ?
A: 0.172

Q: Record lookup: for SW 1573, what relative viability belongs to CC(=O)O[C@@]12CO[C@@H]1C[C@H](O)[C@@]1(C)C(=O)[C@H](O)C3=C(C)[C@@H](OC(=O)[C@H](O)[C@@H](NC(=O)OC(C)(C)C)c4ccccc4)C[C@@](O)([C@@H](OC(=O)c4ccccc4)[C@H]21)C3(C)C [Docetaxel] + CCNC(=O)c1noc(-c2cc(C(C)C)c(O)cc2O)c1-c1ccc(CN2CCOCC2)cc1 [Luminespib] (partner 0.01 µM) ?
A: 0.0935

Q: Record lookup: for SW 1573, what relative viability belongs to CC(=O)O[C@@]12CO[C@@H]1C[C@H](O)[C@@]1(C)C(=O)[C@H](O)C3=C(C)[C@@H](OC(=O)[C@H](O)[C@@H](NC(=O)OC(C)(C)C)c4ccccc4)C[C@@](O)([C@@H](OC(=O)c4ccccc4)[C@H]21)C3(C)C [Docetaxel] + Cc1nc(NC(=O)N2CCC[C@H]2C(N)=O)sc1-c1ccnc(C(C)(C)C(F)(F)F)c1 [Alpelisib] (partner 2 µM) ?
A: 0.29

====

Recorded relative viability, one value per entry.
Test system: NCI-H460
Assay: relative viability (nuclei count vs DMSO), 5 days (fraction); higher = more cells survive
Settings: first compound 158.11 µM

Some solved cases for reference:
O=C(O)CCCCC(CCSCc1ccccc1)SCc1ccccc1 (stereo not drawn) [CPI-613] + Nc1nc2[nH]cc(CCc3ccc(C(=O)N[C@@H](CCC(=O)O)C(=O)O)cc3)c2c(=O)[nH]1 [Pemetrexed] (partner 0.2 µM) ... 0.0795
O=C(O)CCCCC(CCSCc1ccccc1)SCc1ccccc1 (stereo not drawn) [CPI-613] + CC(=O)Nc1cccc(-n2c(=O)n(C3CC3)c(=O)c3c(Nc4ccc(I)cc4F)n(C)c(=O)c(C)c32)c1 [Trametinib] (partner 0.02 µM) ... 0.0278

// next entry
Q: Suppose we examine the compound O=C(O)CCCCC(CCSCc1ccccc1)SCc1ccccc1 (stereo not drawn) [CPI-613] + CS(=O)(=O)CCNCc1ccc(-c2ccc3ncnc(Nc4ccc(OCc5cccc(F)c5)c(Cl)c4)c3c2)o1 [Lapatinib] (partner 2 µM) ; what relative viability value has been reported?
A: 0.243
